A short record of GI50 observed with HCT-15 follows.
Expressed in µM, but write only the number.

Give the measured GI50 of `CS(=O)(=O)OC1CCN(C2(c3cccc(O)c3)CCCCC2)CC1` .
79.1

What about `CCc1nc(N)nc(N)c1-c1ccc(Cl)c(/N=C/N(C)C)c1` ?
10.4

Try this compound next: `CCCCc1c2c(nc3c1CCc1cc(C=O)c(N)nc1-3)/C(=C/c1ccccc1)CCC2`
86.3

Same read-out for `OC1(C(Sc2ccccc2)Sc2ccccc2)CCCCCC1` ?
24.4

Next compound up: `N#C/C(=C1C=C(Br)/C(=N\O)C=C\1Cl)c1cccc2ccccc12`
4.73

Cool, now O=C1CC(O)c2c(Cl)sc(Cl)c21 (stereo not given)
3.39

Repeat with `CCCN(CCC)c1c([N+](=O)[O-])cc(C(=O)N(C)C)cc1[N+](=O)[O-]`
40.4

Now the same for `O=[N+]([O-])c1cc(Cl)cc2c1nc(NCCO)c1ccccc12`
4.36

---

System: NCI-H460
Test: NCI tumour cell line growth inhibition, 48 h
The source made the active and inactive calls. Rule as the data show it: active = GI50 up to about 1.1 µM and inactive = higher.
The categories you may choose from are y = active, n = inactive

Identify the outcome logged in this assay for the compound shown: CCOC(=O)CNC(=O)C(CSCC1C(=O)Nc2ccccc21)NC(=O)CCC(N)C(=O)OCC (stereo not given)
n

Next compound up: CCC12C=CCN3CCC4(C(=C(C(=O)OC)[C@@H]1O)Nc1ccccc14)C32 (stereo not given in full)
n

Now consider `CC(=O)N(/N=C\c1ccc([N+](=O)[O-])cc1)c1ccccc1` .
n

Also `O=C(Nc1nc2ncn(CCI)c2c(=O)[nH]1)c1ccccc1` , if possible.
n

Ok, now `COc1cccc2cc(C(N)=O)c(=N)oc12`
n

Please answer likewise for `O=C(O)[C@H]1CCCN1CP(=O)(O)CN1CCC[C@@H]1C(=O)O`
n

Follow-up item: COc1cc(C2c3cc4c(c(O)c3C(=O)C3CCC(=O)N32)OCO4)cc(OC)c1OC (stereo not given)
n

Now the compound `C/C=C1\NC(=O)[C@H]2CSSCCC=C[C@H](CC(=O)N[C@H](C(C)C)C(=O)N2)OC(=O)[C@H](C(C)C)NC1=O`
y

Here is the next compound: COC(=O)C(Cc1c[nH]c2ccccc12)NC(=O)c1ccc(-c2ccc(Cl)cc2Cl)o1 (stereo not given)
n

// query: `CCCCCCCCCC(=O)N[C@@H](c1ccco1)[C@@H](O)C(=O)O[C@H]1C[C@@]2(O)[C@@H](OC(=O)c3ccccc3)[C@@H]3[C@]4(OC(C)=O)CO[C@@H]4C[C@H](O)[C@@]3(C)C(=O)[C@H](OC(C)=O)C(=C1C)C2(C)C`
y

And then `CCC(=O)NC(OCC1(CC)COC1)(C(F)(F)F)C(F)(F)F` , what is it?
n

# repeat for `O=C1c2cccc3cccc(c23)C(=O)N1CCCNCCCNCCCCNCCCNCCCN1C(=O)c2cccc3cccc(c23)C1=O`
n

Follow-up item: C[C@]12CC/C(=N\OCCN3CCCCC3)C=C1CCC1C2CC[C@@]2(C)C1CC[C@]2(C)O (stereo not given in full)
n

Moving on to `CC(C)(C)OC(=O)CN1CCNCCNCC1`
n

Quick one: CCCN(CCC)c1c([N+](=O)[O-])cc(S(N)(=O)=O)cc1[N+](=O)[O-] [ORYZALIN]
n

Moving on to the next compound: `CNC(=O)N(CCC#N)CCCN(C(=O)N(C)C)c1ccccc1`
n

Same read-out for CCOC(=O)CCC(NC(=O)c1ccc(OCc2ccc3nc(-c4ccccc4)c(Cl)nc3c2)cc1)C(=O)OCC (stereo not given) ?
n

`CCN(CC)CCNCc1cc(Cl)cc2c1OCOC2` ?
n

Entry to check: `c1ccc2c(c1)[n-]n1c3ccc4nonc4c3n[n+]21`
n

Subsequent entry: COC(=O)C(C(=O)C(=O)Nc1ccccc1C(C)=O)c1nc2ccc(Cl)cc2nc1O (stereo not given)
n

Also check CN(C)CS/C(N)=N\C(O)C(Cl)(Cl)Cl (stereo not given)
n

Lookup `COC(=O)CCN(CCC(=O)OC)C1CC1`
n

Can you check `CCOC(=O)C1=C(Nc2ccc(Cl)c(Cl)c2)OC/C1=N\NS(=O)(=O)c1ccc(C)cc1` next?
n

Let us now turn to `Nc1cc(CO)cc(Nc2c3ccccc3nc3ccccc23)c1`
n

Same thing, different compound: `CC(C)OC(=O)NNc1cccc(Cl)c1`
n

Next up: `CCc1cccc(C)c1NC(=O)C(=O)Cc1nc2ccccc2s1`
n

Now try CCC(C)c1c(Cl)nc(Cl)nc1Cl (stereo not given) .
n

Now consider O=C1CC(O)c2c(Cl)sc(Cl)c21 (stereo not given) .
n

// next record CC1=CCC[C@@](C)(O)[C@@H]2C[C@H]3C(CSc4ccccc4)C(=O)O[C@H]3[C@@H](O2)[C@H](C)CCC1 (stereo not given in full)
n

Subsequent entry: `c1ccc(C(c2ccccc2)c2ccncc2)cc1`
n

Entry to check: N#Cc1c(-c2ccccc2)c(C#N)c(=S)n(C2OC(CO)C(O)C(O)C2O)c1O (stereo not given)
n

Param item: `COc1ccc2[nH]c3c(c2c1)CCn1c-3nc2ccccc2c1=O`
n

Can you check CC1C[C@]2(C)C(=O)Nc3ccccc3[C@@H]2Nc2ccccc21 (stereo not given in full) next?
n

Also check C/C(=N/N(C=O)C[n+]1ccccc1)C(CN(CC(C)C)CC(C)C)C(=O)Nc1ccc(C)cc1C (stereo not given)
n

What do you get for `S=c1nc(Nc2ccc(Br)cc2)c2c3c(sc2[nH]1)CN(N1CCc2c(sc4[nH]c(=S)nc(Nc5ccc(Br)cc5)c24)C1)CC3` ?
n

Now give it for COC1C=C(NCC2(CO)CCC2)N=C(N)N1 (stereo not given) too.
n

Please do the same for `O=C1c2cccc3cccc(c23)C(=O)N1CCCNOCCONCCCN1C(=O)c2cccc3cccc(c23)C1=O` as well.
n

Another compound to check: `O=C(O)C1(Nc2ccc(Cl)cc2)CCCC1`
n

Consider next the compound `O=C1c2cccc([N+](=O)[O-])c2C(=O)c2nccnc21` in the same way.
n

Can you check c1cncc(C2N3CCCCC3[C@@H]3c4[nH]c5ccccc5c4CCN23)c1 (stereo not given in full) next?
n
